meta.source: ChEMBL document CHEMBL1153077

Quick reference for Ratio pIC50 among some compounds
Test Protocol: Selectivity ratio of pIC50 for progesterone receptor to pIC50 for human glucocorticoid receptor

Past entries and their recorded results:
| Compound | Ratio pIC50 |
| --- | --- |
| CCN(CC(O)(CNc1cc(C)cc2c1cnn2-c1ccc(F)cc1)C(F)(F)F)C(=O)c1ccccc1F (racemic) | > 50 |
| CCN(CC(O)(CNc1cccc2c1cnn2-c1ccc(F)cc1)C(F)(F)F)C(=O)c1ccccc1F (racemic) | > 50 |
| CCN(CC(O)(CNc1cccc2c1cnn2-c1ccc(F)cc1)C(F)(F)F)C(=O)c1ccccc1 (racemic) | > 50 |
| CCN(CC(O)(CNc1cccc2c1cnn2-c1ccc(F)cc1)C(F)(F)F)C(=O)c1ccccc1F (stereo in doubt; 32E2) | > 50 |
| CCN(CC(O)(CNc1cccc2c1cnn2-c1ccc(F)cc1)C(F)(F)F)C(=O)c1c(C)cccc1C (racemic) | > 50 |
| CCN(CC(O)(CNc1cccc2c1cnn2-c1ccccc1)C(F)(F)F)S(=O)(=O)c1ccc(F)cc1 (racemic) | > 50 |
| CCN(CC(O)(CNc1cccc2c1cnn2-c1ccccc1)C(F)(F)F)S(=O)(=O)c1ccccc1 (racemic) | > 50 |
| CCN(CC(O)(CNc1cccc2c1cnn2-c1ccc(F)cc1)C(F)(F)F)C(=O)c1ccccc1C (racemic) | > 50 |

Now look at this entry.
Need Ratio pIC50, item CCN(CC(O)(CNc1cc(C)cc2c1cnn2-c1ccccc1)C(F)(F)F)C(=O)c1ccccc1 (racemic) > 50
